Target: T1, cynomolgus monkey SIRPγ on CHO cells (cynomolgus monkey, UniProt Q9P1W8 29-386 (human entry))
T1 construct: also called Cyno SIRPγ CHO
T1 chain: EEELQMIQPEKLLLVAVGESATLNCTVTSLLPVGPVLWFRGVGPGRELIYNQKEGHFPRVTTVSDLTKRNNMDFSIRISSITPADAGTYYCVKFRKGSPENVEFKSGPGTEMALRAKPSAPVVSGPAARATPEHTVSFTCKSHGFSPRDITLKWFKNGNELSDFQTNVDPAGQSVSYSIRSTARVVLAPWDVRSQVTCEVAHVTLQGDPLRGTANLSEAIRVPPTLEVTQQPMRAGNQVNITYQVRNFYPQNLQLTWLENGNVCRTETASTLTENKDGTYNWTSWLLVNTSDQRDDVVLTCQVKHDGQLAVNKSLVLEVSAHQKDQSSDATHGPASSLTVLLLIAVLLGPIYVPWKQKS
Assay: flow cytometry, myc-scFv PPE
// reported MFI fold change over parental CHO per item
Give the quantity in fold, number only.

These solved cases illustrate the format of a correct answer.
Antibody 44 (scFv, V domains shown, scFv in crude PPE, V5/myc-tagged) VH: QVQLVQSGAEVKKPGSSVKVSCKASGGTFSKIAVSWVRQAPGQGLEWMGLINPNSGGTDYAQKFQGRVTITADESTSTAYMELSSLRSEDTAVYYCAKDFRGGDYYYYGMDVWGQGTTVTVSS VL: EIVMTQSPATLSVSPGERATLSCRASQSVSSNLAWYQQKPGQAPRLLIYGASTRATGIPARFSGSGSGTEFTLTISSLQSEDFAVYYCQQYNTYPITFGQGTKVEIK: 26.7
Antibody 18 (scFv, V domains shown, scFv in crude PPE, V5/myc-tagged) VH: QVQLVQSGAEVKKPGASVKVSCKASGYTFTGYYMHWVRQAPGQGLEWMGWMNPNSGNTGYAQKFQGRVTMTRDTSTSTVYMELSSLRSEDTAVYYCARGSGYDAGVFDYWGQGTLVTVSS VL: DIQMTQSPSSLSASVGDRVTITCRASQGIGNDLAWYQQKPGKAPKLLIYDAKDLHPGVPSRFSGSGSGTDFTLTISSLQPEDFATYYCQQSYSFPRTFGQGTRLEIK: 16.2

If you can, please state the reported MFI fold change over parental CHO value of Antibody 48 (scFv, V domains shown, scFv in crude PPE, V5/myc-tagged) VH: QVQLVQSGAEVKKPGASVKVSCKASGYTFTSYYMHWVRQAPGQGLEWMGWMNPNSGNTGYAQKFQGRVTMTRDTSTSTVYMELSSLRSEDTAVYYCARDQMYSSYGMDVWGQGTTVTVSS VL: DIQMTQSPSSLSASVGDRVTITCRASESITNWLAWYQQKPGKAPKLLIYKASSLESGVPSRFSGSGSGTDFTLTISSLQPEDFATYYCQQSYGTPYTFGQGTKVEIK .
9.25
